Reference for the values: ChEMBL document CHEMBL1201862

Measured GI50 of individual entries
tested on: A498; assay: NCI tumour cell line growth inhibition, 48 h
Calls of active or inactive are those of the source. Cut-off read from the data, not from the text of the source: active = GI50 up to about 1.1 µM and inactive = higher.

O=C1CSC(c2ccc([N+](=O)[O-])cc2)N1c1nc(-c2ccc3c(c2)CCCC3)cs1 (stereo unspecified) ... > 100 µM (inactive)

# get_value(readout='GI50', item= Cc1ccc(Nc2cc(=O)[nH]c(=S)[nH]2)cc1 )
> 100 µM (inactive)

Need GI50 of Cc1cccc(-c2cccc(COCc3cccc(-c4cccc(CO)n4)n3)n2)n1 , thanks.
> 50 µM (inactive)

Which value of GI50 has been reported for CC1(C)OC2CN(C(=O)OCc3ccccc3)C(CO)C2O1 (stereo unspecified) in the records?
> 100 µM (inactive)

Any idea what its GI50 is? The compound is CCn1c(SC(C)C(=O)c2c(C)n(C)n(-c3ccccc3)c2=O)nc2ccccc2c1=O (stereo unspecified)
> 100 µM (inactive)

----------
system: SR; experiment: NCI tumour cell line growth inhibition, 48 h
The source made the active and inactive calls. Rule as the data show it: active = GI50 up to about 1.1 µM and inactive = higher.
Valid outcomes are listed here; reply with one: Y for active, N for inactive

Solved entries (count: 8):
O=C1c2cc([N+](=O)[O-])sc2C(=O)c2ccsc21 ... Y
O=c1[nH]c2cc([N+](=O)[O-])c(N(CCO)CCO)c([N+](=O)[O-])c2[nH]1 ... N
O=CN(CCN1CCCC1)C1CCc2cc(Cl)c(Cl)cc2C1 (stereo unspecified) ... N
CCOC(=O)c1c(N2CCOCC2)[nH]c(=O)c(C(c2ccc(OC)cc2)c2c(O)c(C(=O)OCC)c(N3CCOCC3)[nH]c2=O)c1O ... N
CCC1C[N+]23CCc4c([nH]c5ccccc45)C2CC1CC3 (stereo unspecified) ... N
COc1ccc(/C=C/c2cc(O)cc(OC)c2)cc1 ... N
CCOP(=O)(OCC)C(C)(CC)NC1=NC(C(F)(F)F)(C(F)(F)F)NC(=O)N1 (stereo unspecified) ... N
O=C(/C=C/c1ccc(/C=C/C(=O)c2ccc(O)cc2)cc1)c1ccc(O)cc1 ... N

Call for entry O=C1c2ccccc2-n2c1nc1ccc(Cl)cc1c2=O :
N

In this assay, the call recorded for C=C(C)CNC(=S)N(N)c1ccc(OC)cc1 was what?
N

Hey, what did the test say about N#Cc1sc2c(c1OC(=O)c1ccco1)c(=O)n(-c1ccccc1)c(=S)n2-c1ccccc1 ?
N

Outcome logged for CCOC(=O)/C=C/[C@H](O[Si](CC)(CC)CC)C(C)(C)C in this assay:
N

Each compound tested received a call. Report the one for N#Cc1nc(CSCc2ccccc2)oc1N .
N

----------
system: DLD-1; assay: NCI tumour cell line growth inhibition, 48 h
Active and inactive are the calls of the source. Cut-off read from the data, not from the text of the source: active = GI50 up to about 1.1 µM and inactive = higher.
Reply using exactly one outcome from active, inactive

O=C(OC1CCC(=C2SCCCS2)[C@H]1C1SCCCS1)c1ccccc1 (stereo partly specified) ... inactive
O=C1c2ccccc2C(=O)C1(Cl)C1(S(=O)(=O)O)c2ccccc2-c2ccccc21 ... inactive
CC(=O)c1cccc(NC(=O)C(=O)Nn2c(N)nnc2N)c1 ... inactive
CC(=O)NC1=C(NCCN(C)C)C(=O)c2ccccc2C1=O ... inactive
Cc1cc(N(CCC#N)CCC#N)ccc1/N=N/c1ccc(Br)cc1 ... inactive

Please state the recorded outcome for this compound: N=C(N)NS(=O)(=O)c1ccc(NC(=O)c2ccc(Cl)c3c(Nc4ccc(S(=O)(=O)N=C(N)N)cc4)c4ccccc4nc23)cc1
inactive

Please state the recorded outcome for this compound: C=CC(OCC)(OCC)OCC
inactive

State the result this test recorded for [O-][n+]1c2c([n+]([O-])c3ccccc31)CCCCCCCCCC2 .
inactive

Can you look up the reported call for NC1=NS(=O)(=O)Nc2nc(-c3ccc(Cl)cc3)[nH]c21 for me?
inactive

For COc1ccc2nc3cc(Cl)ccc3c(NCCCN(CCCl)CCCl)c2c1 , which call appears in the assay record?
active

Please state the recorded outcome for this compound: CCCCCCCCCCCCCCC(C)CCC(=O)O (stereo unspecified)
inactive

For CC(=O)C(CN(C)Cc1ccccc1)C(c1ccccc1)c1c(O)c2ccccc2oc1=O (stereo unspecified) , which call appears in the assay record?
inactive

I'd appreciate the recorded outcome for COC(=O)C(=O)C(C(=O)C=C(C)C)C(=O)C(=O)Nc1cc(C(F)(F)F)ccc1Cl (stereo unspecified) from this test.
inactive

Hey, what did the test say about O=C1c2cccc3cc4ccccc4c(c23)C(=O)N1CCNCCN1C(=O)c2cccc3cc4ccccc4c(c23)C1=O ?
active

Outcome logged for N#C/C(=C\c1ccc2ccccc2c1)C(=O)c1ccccc1 in this assay:
inactive
